assay-target: PRKX (Homo sapiens)
Construct: endogenous in cells
Sequence (P51817 whole entry): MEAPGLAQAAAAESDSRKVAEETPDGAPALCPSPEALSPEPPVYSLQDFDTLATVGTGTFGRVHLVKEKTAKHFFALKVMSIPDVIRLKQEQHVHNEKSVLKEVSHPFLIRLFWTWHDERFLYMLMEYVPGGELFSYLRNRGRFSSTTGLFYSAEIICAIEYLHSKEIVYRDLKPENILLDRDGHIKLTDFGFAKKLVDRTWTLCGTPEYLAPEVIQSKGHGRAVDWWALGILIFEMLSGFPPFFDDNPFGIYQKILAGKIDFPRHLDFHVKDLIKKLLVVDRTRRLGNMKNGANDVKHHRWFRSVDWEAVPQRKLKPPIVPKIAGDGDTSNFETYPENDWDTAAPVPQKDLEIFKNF
experiment: Kinobeads full dose-response competition binding: PRKX
assay-conditions: Gene Name PRKX; eight-dose curve fit, doses in nM
What EC50 was measured for each of the following?
The reply should contain only the number, in nM.

Looking up CCn1c(-c2nonc2N)nc2c(C#CC(C)(C)O)nc(OCCNC)cc21 [GSK949675A] , I see its EC50 listed as 221

Looking up CCn1c(-c2nonc2N)nc2c(C#CC(C)(C)O)nc(OCCN)cc21 [GSK902056A] , I see its EC50 listed as 127

====

assay-target: EPHA5 (Homo sapiens)
Construct: endogenous in cells
Sequence (P54756 25-1037): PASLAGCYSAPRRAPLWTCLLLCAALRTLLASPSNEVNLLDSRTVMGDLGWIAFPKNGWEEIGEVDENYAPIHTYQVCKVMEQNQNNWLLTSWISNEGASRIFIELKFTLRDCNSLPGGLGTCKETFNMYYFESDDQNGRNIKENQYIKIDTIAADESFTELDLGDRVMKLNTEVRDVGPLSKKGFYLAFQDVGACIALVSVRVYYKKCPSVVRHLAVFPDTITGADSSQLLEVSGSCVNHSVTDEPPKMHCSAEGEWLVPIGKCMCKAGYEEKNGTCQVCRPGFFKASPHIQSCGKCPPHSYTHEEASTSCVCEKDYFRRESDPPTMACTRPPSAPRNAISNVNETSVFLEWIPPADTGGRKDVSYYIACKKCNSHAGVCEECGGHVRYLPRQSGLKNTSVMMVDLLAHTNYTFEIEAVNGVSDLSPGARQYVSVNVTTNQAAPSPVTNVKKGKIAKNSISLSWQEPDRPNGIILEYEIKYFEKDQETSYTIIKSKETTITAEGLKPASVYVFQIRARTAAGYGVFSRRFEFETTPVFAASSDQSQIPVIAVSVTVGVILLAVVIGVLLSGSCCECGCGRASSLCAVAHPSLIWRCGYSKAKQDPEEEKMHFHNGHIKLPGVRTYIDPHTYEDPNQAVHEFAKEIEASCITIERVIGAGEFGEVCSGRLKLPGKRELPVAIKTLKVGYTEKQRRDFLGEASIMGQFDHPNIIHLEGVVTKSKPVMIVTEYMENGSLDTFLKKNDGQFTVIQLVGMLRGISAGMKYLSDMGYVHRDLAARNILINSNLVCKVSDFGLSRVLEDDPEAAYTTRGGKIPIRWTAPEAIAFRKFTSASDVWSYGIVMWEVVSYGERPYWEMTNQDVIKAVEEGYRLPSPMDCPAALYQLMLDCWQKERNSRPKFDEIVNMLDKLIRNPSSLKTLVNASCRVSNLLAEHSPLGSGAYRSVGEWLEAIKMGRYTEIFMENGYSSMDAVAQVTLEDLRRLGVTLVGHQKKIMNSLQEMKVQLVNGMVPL
experiment: Kinobeads competition binding: EPHA5
assay-conditions: target EPHA5
What CATDS was measured for each of the following?
The response must contain the number and no unit.

Looking up CCN1CCN(Cc2ccc(Nc3ncc(F)c(-c4cc(F)c5nc(C)n(C(C)C)c5c4)n3)nc2)CC1 , I see its CATDS listed as 0

Looking up N#CC1(c2ccc(NC(=O)c3cccnc3NCc3ccncc3)cc2)CCCC1 , I see its CATDS listed as 0

Looking up Nc1ncnc2[nH]c(-c3ccccc3)nc12 , I see its CATDS listed as 0.02942

Looking up CN(C)C/C=C/C(=O)Nc1cc2c(Nc3ccc(F)c(Cl)c3)ncnc2cc1O[C@H]1CCOC1 , I see its CATDS listed as 0

Looking up CCc1cc2c(cc1N1CCC(N3CCOCC3)CC1)C(C)(C)c1[nH]c3cc(C#N)ccc3c1C2=O , I see its CATDS listed as 0

====

What Kd was measured for each of the following?
assay-target: LATS1 (Homo sapiens, UniProt O95835)
Construct: endogenous in cells
experiment: Kinobeads full dose-response competition binding: LATS1
assay-conditions: Gene Name LATS1; EC50 with Correction, doses in nM; read-out: apparent Kd

Looking up CCn1c(-c2nonc2N)nc2c(C#CC(C)(C)O)nc(OCCN)cc21 [GSK902056A] , I see its Kd listed as 87.4 nM

Looking up CCn1c(-c2nonc2N)nc2c(C#CC(C)(C)O)nc(OCCNC)cc21 [GSK949675A] , I see its Kd listed as 238 nM

====

assay-target: endogenous kinases and other proteins enriched by Kinobeads from mixed cancer cell lysates (Homo sapiens)
Construct: endogenous in cells
experiment: Kinobeads pulldown, full dose-response (eight doses);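 further: competition with Kinobeads ε after inhibitor preincubation in lysate (5 mg/ml protein) for 45 min at 4 °C, DMSO control, doses 0.3–1,000 nM, label-free LC–MS/MS quantification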
Type: binding
assay-conditions: target MARK2
reported-endpoint: pEC50
The scale used: pEC50 is minus the common logarithm of the concentration in molar units.

Looking up Cn1cc(-c2nc(N[C@@H]3CCCC[C@@H]3N)c(F)c3c2C(=O)NC3)cn1 [TAK659] , I see its pEC50 listed as 6.08

====

What CATDS was measured for each of the following?
assay-target: CAMK2D (Homo sapiens, UniProt Q13557)
Construct: endogenous in cells
Sequence (Q13557 whole entry): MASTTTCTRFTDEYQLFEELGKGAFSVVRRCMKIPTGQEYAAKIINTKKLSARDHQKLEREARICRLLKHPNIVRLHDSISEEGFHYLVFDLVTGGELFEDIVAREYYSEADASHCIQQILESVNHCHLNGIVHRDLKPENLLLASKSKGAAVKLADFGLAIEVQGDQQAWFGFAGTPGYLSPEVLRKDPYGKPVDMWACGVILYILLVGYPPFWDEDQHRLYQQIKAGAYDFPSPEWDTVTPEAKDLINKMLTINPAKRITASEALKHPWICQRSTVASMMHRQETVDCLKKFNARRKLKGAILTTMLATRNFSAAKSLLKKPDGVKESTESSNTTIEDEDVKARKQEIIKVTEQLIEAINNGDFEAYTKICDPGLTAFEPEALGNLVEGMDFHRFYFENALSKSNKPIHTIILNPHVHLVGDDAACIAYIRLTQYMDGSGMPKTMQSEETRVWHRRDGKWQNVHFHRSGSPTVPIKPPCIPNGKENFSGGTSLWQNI
experiment: Kinobeads competition binding: CAMK2D;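 further: selectivity score: engagement of this protein divided by summed engagement of all targets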
assay-conditions: target CAMK2D

Looking up Nc1ncnc2[nH]c(-c3ccccc3)nc12 , I see its CATDS listed as 0

Looking up CN(C)C/C=C/C(=O)Nc1cc2c(Nc3ccc(F)c(Cl)c3)ncnc2cc1O[C@H]1CCOC1 , I see its CATDS listed as 0

Looking up CCN1CCN(Cc2ccc(Nc3ncc(F)c(-c4cc(F)c5nc(C)n(C(C)C)c5c4)n3)nc2)CC1 , I see its CATDS listed as 0.08654

Looking up N#CC1(c2ccc(NC(=O)c3cccnc3NCc3ccncc3)cc2)CCCC1 , I see its CATDS listed as 0

Looking up CCc1cc2c(cc1N1CCC(N3CCOCC3)CC1)C(C)(C)c1[nH]c3cc(C#N)ccc3c1C2=O , I see its CATDS listed as 0

====

assay-target: AAK1 (Homo sapiens)
Construct: to maximize the representation of endogenous proteins; endogenous in cells
experiment: Kinobeads two-dose competition binding: AAK1
assay-conditions: sheet "Kinobeads Drugmatrix - all"; unit inferred; same values below 1000 recur in sheet "nanomolar"; read-out: Kinobeads Drugmatrix - all: apparent Kd, AAK1
reported-endpoint: potency estimated from few doses (µM)
The reply should contain only the number, in µM.

Looking up Clc1cc(Cl)cc(Nc2ccnc(Nc3cc(Cl)cc(Cl)c3)n2)c1 [GSK175726A] , I see its potency estimated from few doses listed as 0.46

Looking up CC(C)N1CC(=O)N(C)c2cnc(Nc3cccc(S(=O)(=O)CCN4CCOCC4)c3)nc21 [BI00009348] , I see its potency estimated from few doses listed as 0.662

Looking up O=c1[nH]ccc2nc(N[C@@H]3CCNC3)nc(Nc3ccc4c(c3)S(=O)(=O)CC4)c12 [GSK2181306A] , I see its potency estimated from few doses listed as 0.8

Looking up CCn1c(-c2nonc2N)nc2c(C#CC(C)(C)O)nc(O[C@@H](CN)c3ccccc3)cc21 [GSK1007102B] , I see its potency estimated from few doses listed as 0.0673

Looking up Nc1nccc(-c2ccc3c(N)n[nH]c3c2)n1 [GSK1034945A] , I see its potency estimated from few doses listed as 0.194

Looking up COc1cc(Nc2nccc(N3CCC(NC(=O)c4cccc(C#N)c4)C3)n2)cc(OC)c1OC (stereo not shown) [GSK1379751A] , I see its potency estimated from few doses listed as 0.786

Looking up O=c1[nH]ccc2nc(N[C@@H]3CCCNC3)nc(Nc3ccc(S(=O)(=O)N4CCOCC4)cc3)c12 [GSK2177277A] , I see its potency estimated from few doses listed as 0.0641

====

assay-target: AAK1 (Homo sapiens, UniProt Q2M2I8)
Construct: to maximize the representation of endogenous proteins; endogenous in cells
Sequence (Q2M2I8 whole entry): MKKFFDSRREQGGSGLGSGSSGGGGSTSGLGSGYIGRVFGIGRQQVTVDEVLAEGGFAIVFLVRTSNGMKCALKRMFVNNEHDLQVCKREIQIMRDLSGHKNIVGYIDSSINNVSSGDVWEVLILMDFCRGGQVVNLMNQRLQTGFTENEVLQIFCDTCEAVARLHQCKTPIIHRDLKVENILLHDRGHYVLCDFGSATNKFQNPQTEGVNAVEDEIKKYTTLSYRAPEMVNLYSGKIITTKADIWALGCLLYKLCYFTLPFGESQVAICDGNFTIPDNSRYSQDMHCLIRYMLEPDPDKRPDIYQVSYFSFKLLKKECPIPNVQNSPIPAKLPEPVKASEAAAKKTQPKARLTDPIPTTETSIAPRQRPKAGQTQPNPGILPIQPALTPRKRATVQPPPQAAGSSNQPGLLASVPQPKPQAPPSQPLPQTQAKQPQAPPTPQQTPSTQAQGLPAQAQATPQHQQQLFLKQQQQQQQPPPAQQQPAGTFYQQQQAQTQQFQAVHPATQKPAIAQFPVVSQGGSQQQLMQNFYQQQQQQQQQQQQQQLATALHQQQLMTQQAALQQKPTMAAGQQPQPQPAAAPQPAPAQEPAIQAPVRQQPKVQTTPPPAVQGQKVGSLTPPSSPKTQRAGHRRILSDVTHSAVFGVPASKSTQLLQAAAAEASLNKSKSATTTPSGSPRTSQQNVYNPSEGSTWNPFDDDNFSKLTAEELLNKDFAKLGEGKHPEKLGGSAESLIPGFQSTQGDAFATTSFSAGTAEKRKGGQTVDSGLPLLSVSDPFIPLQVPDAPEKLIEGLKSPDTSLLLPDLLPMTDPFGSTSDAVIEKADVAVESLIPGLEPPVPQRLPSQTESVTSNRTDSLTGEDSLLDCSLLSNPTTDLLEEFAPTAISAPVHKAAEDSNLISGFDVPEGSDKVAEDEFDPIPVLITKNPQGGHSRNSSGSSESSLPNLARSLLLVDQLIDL
experiment: Kinobeads two-dose competition binding: AAK1;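 further: kinobeads competition pulldown from cell lysate, compound preincubated 45 min at 4 °C, bead-bound protein measured by label-free mass spectrometry against DMSO vehicle control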
assay-conditions: read-out: Kinobeads Drugmatrix - all: apparent Kd, AAK1
What potency estimated from few doses was measured for each of the following?
The reply should contain only the number, in µM.

Looking up NC[C@H](CC1CCCCC1)NC(=O)c1ccc(-c2ccnc3[nH]ccc23)s1 [GSK1581428A] , I see its potency estimated from few doses listed as 0.0545

Looking up O=c1[nH]ccc2nc(N[C@@H]3CCNC3)nc(Nc3cc(Cl)cc(Cl)c3)c12 [GSK2188764A] , I see its potency estimated from few doses listed as 0.114

Looking up CNC(=O)c1ccccc1Nc1nc(Nc2ccc(N3CCOCC3)cc2)ncc1Cl [GSK1576028A] , I see its potency estimated from few doses listed as 0.142

Looking up Cc1cccc(Nc2nc(N[C@H]3CCNC3)ncc2C(N)=O)c1 [GSK2197149A] , I see its potency estimated from few doses listed as 0.0646

====

assay-target: PRKACG (Homo sapiens, UniProt P22612)
Construct: endogenous in cells
Sequence (P22612 whole entry): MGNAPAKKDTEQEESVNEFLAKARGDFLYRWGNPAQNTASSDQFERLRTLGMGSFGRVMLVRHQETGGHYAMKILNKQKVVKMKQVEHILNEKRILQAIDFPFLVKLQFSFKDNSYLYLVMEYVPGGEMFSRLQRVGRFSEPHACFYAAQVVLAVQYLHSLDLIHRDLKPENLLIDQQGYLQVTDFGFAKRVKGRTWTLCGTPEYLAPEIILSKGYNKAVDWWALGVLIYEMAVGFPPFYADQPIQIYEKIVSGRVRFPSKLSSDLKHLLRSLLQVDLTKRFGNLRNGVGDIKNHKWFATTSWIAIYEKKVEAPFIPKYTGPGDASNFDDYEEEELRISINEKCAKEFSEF
experiment: Kinobeads full dose-response competition binding: PRKACG
assay-conditions: Gene Name PRKACG; eight-dose curve fit, doses in nM
reported-endpoint: EC50 (nM)
The reply should contain only the number, in nM.

Looking up CCn1c(-c2nonc2N)nc2c(C#CC(C)(C)O)nc(OCCNC)cc21 [GSK949675A] , I see its EC50 listed as 303

====

assay-target: PKN2 (Homo sapiens, UniProt Q16513)
Construct: a mixture of lysates from five cancer cell lines; endogenous in cells
Sequence (Q16513 whole entry): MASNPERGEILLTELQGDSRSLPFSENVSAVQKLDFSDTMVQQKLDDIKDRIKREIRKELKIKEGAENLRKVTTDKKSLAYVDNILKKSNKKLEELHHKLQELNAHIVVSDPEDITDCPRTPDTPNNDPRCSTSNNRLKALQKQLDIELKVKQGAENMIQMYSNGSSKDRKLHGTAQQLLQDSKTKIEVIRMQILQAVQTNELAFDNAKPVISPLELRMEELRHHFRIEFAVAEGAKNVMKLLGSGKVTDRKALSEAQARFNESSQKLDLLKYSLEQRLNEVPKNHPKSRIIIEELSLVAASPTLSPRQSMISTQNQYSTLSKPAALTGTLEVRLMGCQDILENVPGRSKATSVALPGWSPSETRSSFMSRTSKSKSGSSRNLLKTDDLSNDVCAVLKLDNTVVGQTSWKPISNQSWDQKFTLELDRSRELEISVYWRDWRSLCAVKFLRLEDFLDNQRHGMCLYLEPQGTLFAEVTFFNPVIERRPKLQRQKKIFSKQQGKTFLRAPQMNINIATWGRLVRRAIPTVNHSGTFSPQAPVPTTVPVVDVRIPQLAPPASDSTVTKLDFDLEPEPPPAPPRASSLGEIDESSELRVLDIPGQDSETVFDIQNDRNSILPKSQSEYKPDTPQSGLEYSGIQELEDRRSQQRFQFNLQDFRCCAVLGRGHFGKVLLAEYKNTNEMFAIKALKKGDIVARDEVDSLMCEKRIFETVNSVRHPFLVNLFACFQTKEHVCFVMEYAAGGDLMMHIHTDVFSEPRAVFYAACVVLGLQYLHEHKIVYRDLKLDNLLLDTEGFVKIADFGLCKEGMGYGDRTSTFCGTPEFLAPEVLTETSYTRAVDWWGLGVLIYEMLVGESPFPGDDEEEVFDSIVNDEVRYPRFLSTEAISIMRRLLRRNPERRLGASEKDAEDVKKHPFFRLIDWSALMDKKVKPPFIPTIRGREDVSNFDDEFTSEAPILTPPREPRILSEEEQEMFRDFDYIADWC
experiment: Kinobeads full dose-response competition binding: PKN2
assay-conditions: Gene Name PKN2; eight-dose curve fit, doses in nM
reported-endpoint: EC50 (nM)
The reply should contain only the number, in nM.

Looking up CCn1c(-c2nonc2N)nc2c(C#CC(C)(C)O)nc(OCCN)cc21 [GSK902056A] , I see its EC50 listed as 401

====

System: INSR
experiment: Kinobeads competition binding: INSR;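 further: share of total target engagement due to this protein at one drug concentration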
Set-up: species or system human
assay-conditions: target INSR
What CATDS was measured for each of the following?

Looking up Nc1ncnc2[nH]c(-c3ccccc3)nc12 , I see its CATDS listed as 0

Looking up CCc1cc2c(cc1N1CCC(N3CCOCC3)CC1)C(C)(C)c1[nH]c3cc(C#N)ccc3c1C2=O , I see its CATDS listed as 0

Looking up CCN1CCN(Cc2ccc(Nc3ncc(F)c(-c4cc(F)c5nc(C)n(C(C)C)c5c4)n3)nc2)CC1 , I see its CATDS listed as 0

Looking up N#CC1(c2ccc(NC(=O)c3cccnc3NCc3ccncc3)cc2)CCCC1 , I see its CATDS listed as 0

====

assay-target: PRKCD (Homo sapiens)
Construct: endogenous in cells
Sequence (Q05655 whole entry): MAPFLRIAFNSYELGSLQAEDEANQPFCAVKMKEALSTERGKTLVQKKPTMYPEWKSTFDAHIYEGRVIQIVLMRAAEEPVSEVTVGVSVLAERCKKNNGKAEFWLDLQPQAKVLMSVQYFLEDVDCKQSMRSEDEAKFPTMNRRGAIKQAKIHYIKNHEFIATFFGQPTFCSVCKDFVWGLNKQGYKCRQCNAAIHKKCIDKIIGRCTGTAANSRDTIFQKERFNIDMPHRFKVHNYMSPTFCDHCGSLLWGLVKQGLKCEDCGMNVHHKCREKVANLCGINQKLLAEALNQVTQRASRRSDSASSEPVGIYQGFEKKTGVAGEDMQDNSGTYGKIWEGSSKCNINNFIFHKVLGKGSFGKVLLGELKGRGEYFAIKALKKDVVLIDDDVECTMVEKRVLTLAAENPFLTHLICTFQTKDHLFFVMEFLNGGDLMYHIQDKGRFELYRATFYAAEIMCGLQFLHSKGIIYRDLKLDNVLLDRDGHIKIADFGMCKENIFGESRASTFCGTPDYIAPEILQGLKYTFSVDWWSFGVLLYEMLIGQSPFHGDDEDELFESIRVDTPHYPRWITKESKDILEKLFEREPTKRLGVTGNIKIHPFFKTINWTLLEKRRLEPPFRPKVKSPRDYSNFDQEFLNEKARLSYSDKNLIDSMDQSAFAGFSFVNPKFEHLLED
experiment: Kinobeads full dose-response competition binding: PRKCD
assay-conditions: Gene Name PRKCD; eight-dose curve fit, doses in nM
reported-endpoint: EC50 (nM)
The reply should contain only the number, in nM.

Looking up CCn1c(-c2nonc2N)nc2c(C#CC(C)(C)O)nc(OCCN)cc21 [GSK902056A] , I see its EC50 listed as 124

====

System: CDK17
experiment: Kinobeads competition binding: CDK17
Parameters: species or system human
assay-conditions: target CDK17
reported-endpoint: CATDS

Entry Nc1ncnc2[nH]c(-c3ccccc3)nc12 [AH5015_KCGS] : CATDS on CDK17 = 0

Entry CCN1CCN(Cc2ccc(Nc3ncc(F)c(-c4cc(F)c5nc(C)n(C(C)C)c5c4)n3)nc2)CC1 [Abemaciclib] : CATDS on CDK17 = 0.02553

Entry N#CC1(c2ccc(NC(=O)c3cccnc3NCc3ccncc3)cc2)CCCC1 [Apatinib] : CATDS on CDK17 = 0

Entry CCc1cc2c(cc1N1CCC(N3CCOCC3)CC1)C(C)(C)c1[nH]c3cc(C#N)ccc3c1C2=O [Alectinib] : CATDS on CDK17 = 0
